Origin of values: the supplement of paper PMC10567573

Below, each of the variants is paired with its reported protein stability index value.
B1: FAM107A (parent)
chain: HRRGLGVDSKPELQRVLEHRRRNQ

Variants of: B1
TEST_METHOD_NOTES: protein stability index of a GFP-peptide fusion (GPS, HEK-293T) (PSI 1-6); higher = more stable;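 further: lentivirally expressed fusions sorted by FACS into six bins by GFP to DsRed ratio, PSI derived from sequencing read proportions per bin multiplied by bin number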
CONDITION: c terminus: a fixed tail appended
Could you keep your reply to the number by itself?

{"columns": ["VARIANT_STRING", "protein stability index"],
 "data": [
  ["E12A", 4.3]
]}

Read the next record carefully.
Q. Quick one: protein stability index of R20I ?
A. 3.78
